Give fraction unbound for every item shown.
Test: Plasma protein binding
Format: in vitro ADME
Conditions: read-out: Plasma Protein Binding (bound fraction) (converted)
Respond numerically, and do not add a unit to the figure.

# compound O=C(COc1cccc2ccccc12)Nc1ccccc1O ; its fraction unbound = 0.033

# compound COC(=O)c1c(NC(=O)c2ccccc2C)sc(C(=O)Nc2cccc(C)c2)c1C ; its fraction unbound = 0.029
